assay: soluble fraction after stress (log2 fold change); higher = more stays soluble; pooled small domains, quantitative proteomics; settings: stress: 50 degC
MEASURE NAME: soluble fraction (log2)
Simply state the number, no unit and no words.

Sample records with soluble fraction (log2):
                             entry_sequence  measured_result
0  HMFDLATVKRVAEEAGMKFTIHPVELRAAHPNTAVLTLKSKAGRILVLKAASVGGGRIRVTEIDGVPAD           -0.423
1  HMNDRLAGMEGQRGEAATNFDQGEGKVKVGDTVWLAKQSDSTVIVEGDQIVVTGSENGLLKVRL           -0.165
2  HMTKNIIVTTSVKTSDELVEVAKNHALNLELDFNYRNKKTIKELLSSFDGLVVIYKNKISYFEDNSELF           0.0798
3  HMIKEVGYEKFMQMTEEEDIGRVEIDQEENQITFTDKDETAIYKTGMVDDPDLTERLYDAGAEFS           0.0297
4  HMSLRVIEIFGTPQQMSARISLMDGSVTDVKVGQSIPGTSYKVASITGNGVWIQNGTAVSYTHL             -1.3

Given HMGFPAPFDGKAVAELRRRLGLTRRGLAEELSVSPSTVDKWEQGDVALRSPALTILKILWHQGLKALPP , state its recorded soluble fraction (log2).
-1.52

Data request, read-out soluble fraction (log2), for HMNMEYQKAINHIVQMVKDGQLIVGSKIPSERDLSESLGIGRNSTREAISILRGMGLVESRHGSGNYIAKD
-0.148

Quick one: soluble fraction (log2) for HMSISEFNYTEFNGLVEKGQVSEVTISGREIEGRLTSGESFKTYSPETDNSALVGDLLKNNVKINGKP ?
0.12

Tell me the measured soluble fraction (log2) of HMAFAQMAQEAAKGKDDFNDLRQEMEAVIKEQPHILLMAQFGQNPYEIAYQEAKRRKAQDQQQQQ , please.
0.288

If you can, please state the reported soluble fraction (log2) value of HMLTTMSSQWKPSLDAIEILEKSGIAYSFIEDAIPEFVLYWRERGISHGAWNTKFVEHIRKQWAKFEAS .
-1.35

For the sequence shown here, HMQGTTTELLIQKSALYEELNDPEKALNAMFDAFEMDSLNVNVLHRIVSLLLDKEENEKAILYNQLIIDH , give the reported soluble fraction (log2).
0.126

----------
test: soluble fraction after stress (log2 fold change); higher = more stays soluble; pooled small domains, quantitative proteomics; conditions: stress: 50 degC
Tag: 1 if measured soluble fraction (log2) is not below -0.3, -1 if it is.

                             entry_sequence  classification
0  HMTFFDDLLYQAKAAVDNDPSIKPSLHNRAIIEILYQQGVFNMKNAVEHVAELLEISKNTVYLHLRSVKG              -1
1  HMVAEKSKIEMAIDSINKLAKELADSGVAKKTISDIIKSVSGSANYNKITDFEVATDVYKELVALKNKEDT               1
2  HMRFGNHHVYRTLMVLSDQKRKGRKQIADAVGIGEGSMRTIIEYLRGLDMIDIRQTGVKITRHGNAFL               1

Does the sequence HMVDPAFLAWQQKPENTWFGTDRRKTALAIAIAEEIRNDPANSNLVGAAFYARVAEETEETLN have recorded soluble fraction (log2) that is -0.3 or more?
-1

Could you tell me if the measured soluble fraction (log2) of HMSDFEASDPALLREGMRVQHLNFGKGTVITIEGAGANKKASVAFDGVGTKQLMLRFARLKIIYE reaches -0.3 or more?
1

State whether the measured soluble fraction (log2) reaches -0.3, counting equality as reaching it, for HMYEGLPVTLIIDGRVIEANLAKANRDMAWLERELANSGVRSHHDVFFATLDSRGQLYYQVKN
1

State whether the measured soluble fraction (log2) reaches -0.3, counting equality as reaching it, for HMAFKNGLLQTSKKVTLVRKVDGVTMRFDSLRAASVFLGRNKGYLSNVIKNGRTLDNYEIVVGE
-1

Given HMYMTTADADMWKYVNTGRYNNDIQLMEEYKNRSMDSFEVITPEQQRKYNKAAMNLNSYYAWADPSYKPNP , state whether its soluble fraction (log2) is at least -0.3.
1
